Biological target: SNX27, Q96L92
Assay: holdup assay
Parameters: key: below the threshold = too weak to quantify, mostly under pKd 3.1 to 4
Conditions: plain residues with an end cap or a label only (N-terminal biotin on a linker: ado-ado)
assay readout: pKd

Examples with answers:
* EIPAQSPTCV [FZD10, Q9ULW2] | 4.08
* DTKNYKQTSV [CRIPT, Q9P021] | 5.33
* ARSAAASNYV [CLDN4, O14493] | 3.53
* KPGKGSETVV [FZD4, Q9ULV1] | 4.62

Record DDASLPVSDV [PLEKHA1, Q9HB21] , field pKd: below the threshold

ILRKSTTTTV [PRR16, Q569H4] yielded pKd of 5.15

The binder GIKKITSTAL [RPS6KA3, P51812] showed pKd equal to 4.93

EKCGKEFSEF [PRKACA, P17612] has a reported pKd of below the threshold

Query QLSFNTDTLC [ABCA2, Q9BZC7] yields pKd of 4.17

Lab book: pKd of EPQYQPGENL [SRC, P12931] noted as 3.79

// sample QSGLYESEEL [MYOT, Q9UBF9] , its pKd was below the threshold

Entry under test: MQHQRTHTRV [ZSCAN30, Q86W11] . Its pKd was 4.38

// pKd lookup, binder = EDGESWEYQI [TRPV6, Q9H1D0] , result: below the threshold

So for PYSESDDDWC [CACNA1A, O00555] , the logged pKd turned out to be 4.09

Per the record, REEPDHSTEV [CCRL2, O00421] has pKd of 4.73

Quick note, pKd for PYPTADHMLA [JUP, P14923] landed at below the threshold

Data point: LESTTVGTSV [KARS1, Q15046] ; pKd = 4.45
